Values were extracted from patent US20240150360A1.

molecular target: CBP (Homo sapiens); construct: endogenous in cells; host or cells: 22Rv1 (ATCC CRL-2505) human prostate cancer cells; test: CBP degradation in 22Rv1 cells (5 h); assay type: cell-based; conditions: 22Rv1, 5 h, 22Rv1 cells, 5 h; read-out: CBP Degradation (22Rv1, 5 h) DCmax
Sequence (Q92793 whole entry): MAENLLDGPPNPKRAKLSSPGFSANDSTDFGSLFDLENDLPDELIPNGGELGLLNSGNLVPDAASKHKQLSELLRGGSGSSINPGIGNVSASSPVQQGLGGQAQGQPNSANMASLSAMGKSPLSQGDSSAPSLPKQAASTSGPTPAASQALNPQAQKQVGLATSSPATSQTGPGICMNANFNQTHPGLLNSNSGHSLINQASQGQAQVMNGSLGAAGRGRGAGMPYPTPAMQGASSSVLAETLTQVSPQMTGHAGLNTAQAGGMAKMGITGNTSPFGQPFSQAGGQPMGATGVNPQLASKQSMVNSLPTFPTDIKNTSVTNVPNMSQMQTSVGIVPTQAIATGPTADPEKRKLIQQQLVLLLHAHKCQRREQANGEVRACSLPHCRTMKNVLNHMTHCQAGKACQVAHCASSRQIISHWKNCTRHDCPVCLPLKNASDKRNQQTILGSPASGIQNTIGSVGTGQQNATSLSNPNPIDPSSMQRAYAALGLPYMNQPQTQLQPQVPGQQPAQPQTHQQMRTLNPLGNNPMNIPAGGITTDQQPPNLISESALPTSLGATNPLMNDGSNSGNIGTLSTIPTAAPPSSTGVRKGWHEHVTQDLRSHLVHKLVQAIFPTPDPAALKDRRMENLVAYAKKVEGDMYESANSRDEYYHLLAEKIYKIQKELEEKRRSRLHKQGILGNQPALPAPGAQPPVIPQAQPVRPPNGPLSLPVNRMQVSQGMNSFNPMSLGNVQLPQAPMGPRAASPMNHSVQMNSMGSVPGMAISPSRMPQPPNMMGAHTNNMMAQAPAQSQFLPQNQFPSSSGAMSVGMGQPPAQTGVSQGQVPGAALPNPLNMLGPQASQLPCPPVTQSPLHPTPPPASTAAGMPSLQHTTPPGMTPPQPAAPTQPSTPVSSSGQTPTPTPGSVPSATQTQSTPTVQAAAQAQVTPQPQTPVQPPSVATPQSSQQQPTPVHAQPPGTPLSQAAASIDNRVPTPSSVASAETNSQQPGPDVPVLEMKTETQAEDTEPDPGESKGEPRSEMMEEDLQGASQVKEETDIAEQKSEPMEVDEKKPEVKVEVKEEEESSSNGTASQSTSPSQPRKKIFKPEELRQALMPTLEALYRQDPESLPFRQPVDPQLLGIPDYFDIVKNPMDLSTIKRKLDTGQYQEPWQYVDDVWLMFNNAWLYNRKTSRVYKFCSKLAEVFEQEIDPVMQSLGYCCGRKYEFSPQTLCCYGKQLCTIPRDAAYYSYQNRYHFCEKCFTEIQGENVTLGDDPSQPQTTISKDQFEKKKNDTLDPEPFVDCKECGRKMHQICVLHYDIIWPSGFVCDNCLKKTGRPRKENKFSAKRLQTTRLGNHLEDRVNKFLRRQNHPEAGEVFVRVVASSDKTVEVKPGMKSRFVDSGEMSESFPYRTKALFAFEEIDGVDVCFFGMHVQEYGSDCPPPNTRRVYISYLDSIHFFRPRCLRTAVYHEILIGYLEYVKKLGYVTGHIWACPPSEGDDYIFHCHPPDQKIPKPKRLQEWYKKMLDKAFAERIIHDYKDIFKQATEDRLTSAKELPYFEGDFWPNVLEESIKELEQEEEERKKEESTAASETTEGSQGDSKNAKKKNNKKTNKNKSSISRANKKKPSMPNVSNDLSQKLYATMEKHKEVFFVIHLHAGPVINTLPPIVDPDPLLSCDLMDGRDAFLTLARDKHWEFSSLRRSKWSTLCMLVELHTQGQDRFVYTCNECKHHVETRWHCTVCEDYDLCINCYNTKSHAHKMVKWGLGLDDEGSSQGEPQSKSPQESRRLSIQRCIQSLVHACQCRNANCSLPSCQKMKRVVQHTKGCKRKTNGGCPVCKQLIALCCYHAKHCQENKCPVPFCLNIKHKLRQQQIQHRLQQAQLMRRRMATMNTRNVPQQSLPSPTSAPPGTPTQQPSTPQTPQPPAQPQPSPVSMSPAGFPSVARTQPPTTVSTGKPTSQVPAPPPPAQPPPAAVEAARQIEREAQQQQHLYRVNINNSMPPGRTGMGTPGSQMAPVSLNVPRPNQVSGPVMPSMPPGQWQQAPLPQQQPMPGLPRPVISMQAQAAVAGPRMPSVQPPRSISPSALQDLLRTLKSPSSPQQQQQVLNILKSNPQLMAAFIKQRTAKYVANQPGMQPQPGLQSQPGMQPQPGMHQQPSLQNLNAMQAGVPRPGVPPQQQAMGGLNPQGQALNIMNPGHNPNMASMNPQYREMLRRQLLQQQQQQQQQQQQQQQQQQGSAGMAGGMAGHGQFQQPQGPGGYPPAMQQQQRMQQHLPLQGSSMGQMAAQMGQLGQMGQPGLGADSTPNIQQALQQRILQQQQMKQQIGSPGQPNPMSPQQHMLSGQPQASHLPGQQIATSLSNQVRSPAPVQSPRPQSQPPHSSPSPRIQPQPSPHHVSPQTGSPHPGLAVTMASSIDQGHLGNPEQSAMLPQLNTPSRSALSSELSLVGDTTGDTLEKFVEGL
Listed compounds paired with reported Dmax

Examples from the recorded data:
- CC(=O)N1CCc2c(c(N3CCCc4cc(-c5cnn(C)c5)c(C(F)F)cc43)nn2C[C@H]2CC[C@@H](N3CCc4cc5c(cc4C3)C(=O)N(C3CCC(=O)NC3=O)C5=O)CC2)C1 (relative stereo): > 90%
- CC(=O)N1CCc2c(c(N3CCCc4cc(-c5cnn(CCCN6CCc7cc8c(cc7C6)C(=O)N(C6CCC(=O)NC6=O)C8=O)c5)c(C(F)F)cc43)nn2C2CCOCC2)C1 (stereo not shown): < 50%
- CC(=O)N1CCc2c(c(N3CCCc4cc(C)c(C(F)F)cc43)nn2C2CCN(C(=O)CN3Cc4cc5c(cc4C3)C(=O)N(C3CCC(=O)NC3=O)C5=O)CC2)C1 (stereo not shown): > 90%
- CC(=O)N1CCc2c(c(N3CCCc4cc(-c5cnn(C)c5)c(C(F)F)cc43)nn2C2CCN(C(=O)CCCN3Cc4cc5c(cc4C3)C(=O)N(C3CCC(=O)NC3=O)C5=O)CC2)C1 (stereo not shown): > 70%
- CC(=O)N1CCc2c(c(N3CCCc4cc(-c5cnn(C)c5)c(C(F)F)cc43)nn2C2CCC(C(=O)N3Cc4cc5c(cc4C3)C(=O)N(C3CCC(=O)NC3=O)C5=O)CC2)C1 (stereo not shown): > 90%

Reported Dmax for CBP (Homo sapiens), given CC(=O)N1CCc2c(c(-c3cccc4ccccc34)nn2C2CCN(C(=O)CN3CCc4cc5c(cc4C3)C(=O)N(C3CCC(=O)NC3=O)C5=O)CC2)C1 (stereo not shown) ?
> 90%

Reported Dmax for CBP (Homo sapiens), given Cc1noc(C)c1-c1ccc2c(c1)nc([C@@H]1CCCC(=O)N1c1ccc(F)c(F)c1)n2C1CCN(C(=O)CCN2Cc3cc4c(cc3C2)C(=O)N(C2CCC(=O)NC2=O)C4=O)CC1 (stereo partly shown) ?
< 50%

Reported Dmax for CBP (Homo sapiens), given CC(=O)N1CCc2c(c(N3CCCc4cc(-c5cnn(C)c5)c(C(F)F)cc43)nn2C2CCC(C(C)CN3Cc4cc5c(cc4C3)C(=O)N(C3CCC(=O)NC3=O)C5=O)CC2)C1 (stereo not shown) ?
> 90%

Reported Dmax for CBP (Homo sapiens), given CC(=O)N1CCc2c(c(N3CCCc4cc(-c5cnn(C6CCN(C(=O)CN7Cc8cc9c(cc8C7)C(=O)N(C7CCC(=O)NC7=O)C9=O)CC6)c5)c(C(F)F)cc43)nn2C2CCOCC2)C1 (stereo not shown) ?
> 90%

Reported Dmax for CBP (Homo sapiens), given CC(=O)N1CCc2c(c(N3CCCc4cc(-c5cnn(C)c5)c(C(F)F)cc43)nn2C[C@H]2CC[C@@H](C(=O)N3CCc4cc5c(cc4C3)C(=O)N(C3CCC(=O)NC3=O)C5=O)CC2)C1 (stereo partly shown) ?
> 50%
